# Test system: SF-539
# Assay Details: Cytotoxicity against Homo sapiens (human) SF539 cells assessed as cell growth at 10 uM after 48 hr by SRB assay relative to control
# Format: functional
# Conditions: SF-539, 48 h, read-out: Activity
Readout Name: growth at 10 µM (%)
Only the number, expressed in %, is required.

Field: example entries. Status: answers known.
O=C(CSc1nc2ccccc2c2nc(=O)c(-c3ccccc3)nn12)NCc1ccccc1F ... 20.9
Cc1ccc(CNC(=O)CSc2nc3ccccc3c3nc(=O)c(-c4ccccc4)nn23)cc1 ... 48
O=C(CSc1nc2ccccc2c2nc(=O)c(-c3ccccc3)nn12)NCc1ccc(F)cc1 ... 30.8
Cc1ccc(-c2nn3c(SCC(=O)Nc4cccc(C(F)(F)F)c4)nc4ccccc4c3nc2=O)cc1 ... 80.8

Now consider a different compound.
Find the recorded growth at 10 µM belonging to O=C(CSc1nc2ccccc2c2nc(=O)c(-c3ccccc3)nn12)NCc1ccccc1Cl and report it.
9.93
